Tgt: Peroxisome proliferator-activated receptor gamma (Homo sapiens)
Method summary: NVS_NR_hPPARg: NovaScreen (NVS) Nuclear Receptor Binding Assay for human Peroxisome Proliferator-activated Receptor gamma (PPARg) (AID 2283370)
Results filed as inconclusive are left out. Activity calls are given as the source filed them. The calls were made as follows: active = hit-call score of the fitted dose curve at least 0.9, where 1 is the maximum; inconclusive = response in the unintended direction; inactive = score below 0.9.
Write down the outcome that applies. Available outcomes: 1.0 = active, 0.0 = inactive

Query: Test call, this compound: CCCCC(CC)COP(=O)(OCC(CC)CCCC)OCC(CC)CCCC (centres undefined)
Response: 0.0

Query: Test call, this compound: "O=C(NS(=O)(=O)/C=C/c1cccs1)c1ccc(F)cc1Br"
Response: 1.0

Query: Test call, this compound: "Oc1ccc(O)cc1"
Response: 0.0

Query: Test call, this compound: CC(C)NCC(O)c1ccc(O)c(O)c1 (centres undefined)
Response: 1.0

***
Query: Test call, this compound: "OCC(O)CO"
Response: 1.0

Query: Test call, this compound: "CCCCc1nc2cccnc2n1Cc1ccc(-c2ccccc2-c2nnn[nH]2)cc1"
Response: 1.0

Query: Test call, this compound: "CC(N)=O"
Response: 1.0

Query: Test call, this compound: "Oc1ccccc1O"
Response: 1.0

Query: Test call, this compound: "NC1CCCCC1"
Response: 0.0

Query: Test call, this compound: CCC(C)N(C)C(=O)c1cc2ccccc2c(-c2ccccc2Cl)n1 (centres undefined)
Response: 1.0

Query: Test call, this compound: "CN(C)C(=O)NC1(c2ccccc2)CCN(CC[C@@]2(c3ccc(F)c(F)c3)CN(C(=O)c3ccccc3)CCO2)CC1"
Response: 0.0

* * *

Tgt: human Phosphodiesterase 4A1 (PDE4A1), PDE4A (gene 5141)
Method summary: NVS_ENZ_hPDE4A1: NovaScreen (NVS) Enzymatic Assay for human Phosphodiesterase 4A1 (PDE4A1) (AID 2283191)
Method: NVS_ENZ_hPDE4A1 is a biochemical, single-readout assay that uses extracted gene-proteins in a cell-free assay. Measurements were taken 1 hour after chemical dosing in a 384-well plate.NVS_ENZ_hPDE4A1 is one of one assay component(s) measured or calculated from the NVS_ENZ_hPDE4A1 assay. […] This assay endpoint, NVS_ENZ_hPDE4A1, was analyzed in the positive analysis fitting direction relative to DMSO as the negative control and baseline of activity. […]
Records with an inconclusive call do not appear. Active and inactive are the calls of the source. How the source made its calls: active means hit-call score of the fitted dose curve at least 0.9, where 1 is the maximum; inconclusive means response in the unintended direction; inactive means score below 0.9.
Write down the outcome that applies. Available outcomes: active, inactive

Query: Test call, this molecule: "O=C1NC(=O)C(c2ccccc2)(c2ccccc2)N1"
Response: inactive

Query: Test call, this molecule: "C/C=C/C=C/C(=O)O"
Response: inactive

Query: Test call, this molecule: "COc1ccc(OC(F)(F)F)cc1CN[C@H]1CCCN[C@H]1c1ccccc1"
Response: inactive

Query: Test call, this molecule: "CCCCCCCCCCCCCCOS(=O)(=O)O"
Response: active

Now look at this one.
Query: Test call, this molecule: "COc1ccc(C(=O)Nc2nc3ccccc3c(NCc3ccccc3)c2C#N)cc1"
Response: active

* * *

Tgt: Transcription factor Sp1 (Homo sapiens)
Method summary: ATG_Sp1_CIS: Attagene CIS-FACTORIAL HepG2 Assay for human Specificity Protein 1 (Sp1) (AID 2282961)
Measurement conditions: HepG2 Sp1 cis-reporter transcription, actives raise or lower the signal
Active and inactive are the calls of the source. Rule for the calls: active = hit-call score of the fitted dose curve at least 0.9, where 1 is the maximum; inactive = score below 0.9.
Write down the outcome that applies. Available outcomes: active, inactive

The examples below pair each entry with its known result.
Query: Test call, this molecule: "CCc1cc(C2=C(C(=O)O)N(c3ccccc3C(F)(F)F)S(=O)(=O)c3ccccc32)cc2c1OCO2"
Response: active

Query: Test call, this molecule: "O=C(N[C@@H](c1ccccc1)[C@@H]1CCCCN1)c1cccc(C(F)(F)F)c1Cl"
Response: active

Query: Test call, this molecule: CCCCCCC(CCCCCCCCCCC(=O)OCC(COC(C)=O)OC(C)=O)OC(C)=O (stereo not given)
Response: inactive

Query: Test call, this molecule: CC(=O)OC1CC(C)OC(C)O1 (stereo not given)
Response: inactive

Query: Test call, this molecule: CCCCC(CC)COC(=O)CCCCCCCC(=O)OCC(CC)CCCC (stereo not given)
Response: inactive

***
Query: Test call, this molecule: "COc1ccc(OC(F)(F)F)cc1CN[C@H]1CCCN[C@H]1c1ccccc1"
Response: inactive

Query: Test call, this molecule: CCCCC(CC)COP(=O)(OCC(CC)CCCC)OCC(CC)CCCC (stereo not given)
Response: inactive

Query: Test call, this molecule: "Cn1cnc2c1c(=O)[nH]c(=O)n2C"
Response: inactive

* * *

Read-out: Interleukin-1 alpha (IL1a), IL1A (gene 3552)
Method summary: BSK_KF3CT_IL1a: BioMAP Diversity Plus: KF3CT Assay for Interleukin-1 alpha (IL1a) Biomarker Activity (AID 2283070)
Measurement conditions: primary human keratinocytes with fibroblasts; actives raise or lower the signal
The source made the active and inactive calls. The calls were made as follows: active = hit-call score of the fitted dose curve at least 0.9, where 1 is the maximum; inactive = score below 0.9.
Write down the outcome that applies. Available outcomes: 1 = active, -1 = inactive

Query: Test call, this molecule: "CC(C)c1cccc(C(C)C)c1"
Response: -1

Query: Test call, this molecule: "COC(=O)CCCC(=O)OC"
Response: -1

Query: Test call, this molecule: "NC=O"
Response: -1

Query: Test call, this molecule: "O=C(NS(=O)(=O)/C=C/c1cccs1)c1ccc(F)cc1Br"
Response: 1

Query: Test call, this molecule: "CO[C@@H]1COCC[C@@H]1N[C@@H]1CC[C@@](C(=O)N2CCc3ncc(C(F)(F)F)cc3C2)(C(C)C)C1"
Response: -1

***
Query: Test call, this molecule: Cc1c(C)c2c(c(C)c1O)CCC(C)(COc1ccc(CC3SC(=O)NC3=O)cc1)O2 (stereo not drawn)
Response: 1

Query: Test call, this molecule: "O=C1O[C@H]([C@H](O)CO)C(O)=C1O"
Response: -1

Query: Test call, this molecule: "O=Cc1ccccc1C=O"
Response: -1

Query: Test call, this molecule: "O=C(O)CN(CC(=O)O)CC(=O)O"
Response: -1

Query: Test call, this molecule: "Cc1occc(=O)c1O"
Response: -1

Query: Test call, this molecule: "O=[Si]=O"
Response: -1

Query: Test call, this molecule: "S=c1[nH]c2ccccc2s1"
Response: -1

Query: Test call, this molecule: "CCCC[C@H]1CN(CC2CCOCC2)C(=O)OC12CCN(C1(C)CCN(C(=O)c3c(C)ncnc3C)CC1)CC2"
Response: -1

* * *

Read-out: Cyclin Dependent Kinase Inhibitor 1A (CDKN1A), CDKN1A (gene 1026)
Method summary: LTEA_HepaRG_CDKN1A: Life Technologies and Expression Analysis (LTEA) Assay for Cyclin Dependent Kinase Inhibitor 1A (CDKN1A) using HepaRG (AID 2283450)
Measurement conditions: mRNA level, 48 h; actives raise or lower the signal
Activity calls are given as the source filed them. Rule for the calls: active = hit-call score of the fitted dose curve at least 0.9, where 1 is the maximum; inactive = score below 0.9.
Write down the outcome that applies. Available outcomes: true (1) (active), false (0) (inactive)

Query: Test call, this molecule: "Cc1occc(=O)c1O"
Response: false (0)

***
Query: Test call, this molecule: "CCc1cc(C2=C(C(=O)O)N(c3ccccc3C(F)(F)F)S(=O)(=O)c3ccccc32)cc2c1OCO2"
Response: false (0)

Query: Test call, this molecule: "COC(=O)CCCC(=O)OC"
Response: false (0)

Query: Test call, this molecule: "CCCCCCC(C=O)=Cc1ccccc1"
Response: false (0)

Query: Test call, this molecule: "Cc1ccc(-c2cc(C(F)(F)F)nn2-c2ccc(S(N)(=O)=O)cc2)cc1"
Response: false (0)

Query: Test call, this molecule: "Cc1cn([C@H]2C=C[C@@H](CO)O2)c(=O)[nH]c1=O"
Response: false (0)

Query: Test call, this molecule: "O=C(O)CC(O)(CC(=O)O)C(=O)O"
Response: false (0)

Query: Test call, this molecule: "Nc1nc(Cl)nc2c1ncn2[C@H]1C[C@H](O)[C@@H](CO)O1"
Response: true (1)

Query: Test call, this molecule: "O=C(Oc1ccccc1)c1cccc(C(=O)Oc2ccccc2)c1"
Response: false (0)

Query: Test call, this molecule: "Oc1ccc(O)cc1"
Response: false (0)

Query: Test call, this molecule: CC(C)NCC(O)c1ccc(O)c(O)c1 (stereo not given)
Response: true (1)

Query: Test call, this molecule: "CC(C)COC(=O)CCCCC(=O)OCC(C)C"
Response: false (0)

Query: Test call, this molecule: "CCN(CC)CCOc1ccc(C(=C(Cl)c2ccccc2)c2ccccc2)cc1"
Response: false (0)

Query: Test call, this molecule: "CN(C)C(=O)NC1(c2ccccc2)CCN(CC[C@@]2(c3ccc(F)c(F)c3)CN(C(=O)c3ccccc3)CCO2)CC1"
Response: false (0)

Query: Test call, this molecule: "Cc1cc(Cc2ccc(N)c(C)c2)ccc1N"
Response: false (0)

Query: Test call, this molecule: "CSc1ccc(Oc2ccc(S(N)(=O)=O)cc2CN(C)C)cc1C"
Response: false (0)

* * *

Method summary: BSK_hDFCGF_Proliferation: Cell Proliferation Assessment in the BioMAP Diversity Plus: hDFCGF Assay (AID 2283059);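 also: curves fitted for both rise and fall of signal versus DMSO baseline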
Measurement conditions: primary human foreskin fibroblasts
Activity calls are given as the source filed them. How the source made its calls: active means hit-call score of the fitted dose curve at least 0.9, where 1 is the maximum; inactive means score below 0.9.
Write down the outcome that applies. Available outcomes: yes = active, no = inactive

The examples below pair each entry with its known result.
Query: Test call, this molecule: "CCCCCCCCCC[N+](C)(C)[O-]"
Response: no

Query: Test call, this molecule: "N[C@@H](Cc1c[nH]c2ccccc12)C(=O)O"
Response: no

Query: Test call, this molecule: "CN(C)CCCN(C)CCCN(C)C"
Response: no

Query: Test call, this molecule: "O=C(Oc1ccccc1)c1cccc(C(=O)Oc2ccccc2)c1"
Response: no

Query: Test call, this molecule: "CS(=O)(=O)c1ccc([C@@H](C[C@H]2CCC(=O)C2)C(=O)Nc2cnccn2)cc1Cl"
Response: no

Query: Test call, this molecule: "CCCCCCCCCCCCCCCCO"
Response: yes

Query: Test call, this molecule: "CCOCCOCCO"
Response: no

Query: Test call, this molecule: "COC(=O)CCC(=O)OC"
Response: no

Query: Test call, this molecule: "O=[Si]=O"
Response: no

Query: Test call, this molecule: "CC(=O)O"
Response: yes

Now look at this one.
Query: Test call, this molecule: CCCCC(CC)COC(=O)CCCCCCCC(=O)OCC(CC)CCCC (stereo unspecified)
Response: no
